- System: HEK-293T
- Assay remarks: Multiplex assay against HEK293T
- Format: toxicity, cell-based
- Assay context: human, 12 h, 10 µM, compound concentration 10 uM, replicate 2
Population Mitochondria Different-Phenotype (%) strictly under 80% means YES; at 80% or over means NO.

N[C@](CC1c2ccccc2Oc2ccccc21)(C(=O)O)[C@H]1C[C@@H]1C(=O)O	YES
CC(F)(F)CN1CCOc2c(nn(-c3ccccc3Cl)c2-c2ccc(Cl)cc2)C1=O	NO
CN1CCC(C(=O)c2cccc(NC(=O)c3c(F)cc(F)cc3F)n2)CC1	YES
C[C@@H]1CC(=O)Nc2cccc(-c3ccc4c(c3)c(-c3cnn(C)c3)nn4C)c2N1	NO
S=C(NCCCc1c[nH]cn1)NCCCN(Cc1ccc(Cl)c(Cl)c1)c1ccc(Br)cn1	NO
O=C(Nc1cc(-c2ccccc2)nn1-c1ccccc1F)c1ccc([N+](=O)[O-])cc1	YES
Cn1cc(C(=O)OCC2CCN(CCNS(C)(=O)=O)CC2)c2ccccc21	YES

###

- Tested on: HEK-293T
- Assay remarks: Multiplex assay against HEK293T
- Assay type: toxicity, cell-based
- Assay context: human, 48 h, 10 µM, compound concentration 10 uM, replicate 2
Assay readout: Population Tubulin-Different-Phenotype (%)

Cc1cc(NC(=O)NCCN2CCC(O)(Cc3ccccc3)CC2)c2ccccc2n1 [PALOSURAN]	19%
CN(C)C/C=C/C(=O)Nc1ccc(C(=O)N2CCCC(Nc3ncc(Cl)c(-c4c[nH]c5ccccc45)n3)C2)cc1 (stereo not drawn)	57%
COc1cc(C(=O)N2CC[C@@H](O)[C@@H](N)C2)cc2nc(-c3cc4ccccc4n3CC3CC3)n(C)c12.Cl	74%

###

- System: Fibroblast
- Assay remarks: Multiplex assay against human fibroblast
- Assay type: toxicity, cell-based
- Assay context: 12 h, 1 µM, compound concentration 1 uM, replicate 2
Item-by-item account of Population Pyknosed Nuclei (%)
Assay readout: Population Pyknosed Nuclei (%)

CN(C)C(=O)Cn1cc(-c2ccc(-c3nnc4ccccn34)cc2)cn1	20%
CCc1nn2c(C)cc(C)nc2c1Cc1ccc(-c2nnc(C3CCNCC3)o2)cc1	33%
Nc1nc(CC(=O)Nc2ccc(CCNC[C@H](O)c3ccccc3)cc2)cs1	19%
Cc1c(Cc2ccc3ccccc3n2)c2cc(F)ccc2n1CC(=O)O	22%
O=C(Nc1cc(-c2ccccc2)nn1-c1ccccc1F)c1ccc([N+](=O)[O-])cc1	25%

###

- System: HEK-293T
- Assay remarks: Multiplex assay against HEK293T
- Type: toxicity, cell-based
- Assay context: human, 24 h, 1 µM, compound concentration 1 uM, replicate 2
Listing of entries alongside the reported Population Mitotic Cells (%).
Assay readout: Population Mitotic Cells (%)

CC(C)(O)C(=O)N1CCN(c2ccc(C(F)(F)F)c(C3=C(c4c[nH]c5ccccc45)C(=O)NC3=O)c2)CC1	70
CN(C)C(=O)Cn1cc(-c2ccc(-c3nnc4ccccn34)cc2)cn1	53
C[C@@H]1CC(=O)Nc2cccc(-c3ccc4c(c3)c(-c3cnn(C)c3)nn4C)c2N1	50
Cn1cc(C(=O)OCC2CCN(CCNS(C)(=O)=O)CC2)c2ccccc21	51
OCCCNc1cc(-c2ccnc(Nc3cccc(Cl)c3)n2)ccn1	22
COc1c(Nc2ccc(S(C)(=O)=O)nc2C)ncnc1OC1CCN(C(=O)OC(C)C)CC1	69

All figures here come from ChEMBL document CHEMBL5058577.
